- assay.summary: Cytotoxicity against human KB-CCL-17 cells assessed as reduction in cell viability by MTT assay
- Type: functional, cell-based
pIC50: −log10 of the molar value.
Below: a set of entries, each annotated with reported pIC50.
endpoint.name: pIC50

1) C#CCOc1ccc2ncnc(NCc3ccccc3)c2c1 ... 4.22
2) Cc1c2ccncc2c(C)c2c1[nH]c1ccccc12 ... 5.96
3) CN1CCN(c2ncnc3ccc(OCc4cn(-c5ccccc5[N+](=O)[O-])nn4)cc23)CC1 ... < 3.70
4) O=[N+]([O-])c1cccc(-n2cc(COc3ccc4ncnc(NCc5ccccc5)c4c3)nn2)c1 ... < 3.70
5) O=[N+]([O-])c1ccccc1-n1cc(COc2ccc3ncnc(NCc4ccccc4)c3c2)nn1 ... 4.37
6) C#CCOc1ccc2ncnc(N3CCN(C)CC3)c2c1 ... < 3.70
7) CN1CCN(c2ncnc3ccc(OCc4cn(-c5cccc([N+](=O)[O-])c5)nn4)cc23)CC1 ... < 3.70
8) O=[N+]([O-])c1cccc(Nc2ncnc3ccc(OCc4cn(-c5ccccc5[N+](=O)[O-])nn4)cc23)c1 ... < 3.70
